test: lipophilicity by isocratic RP-HPLC (log k, k, log kw, S); type: physicochemical; conditions: slope of log k versus ϕM regression

COMPOUND: CCCCCCCOc1cccc(NC(=O)OC(CN(CCC)CCC)CN2CCCC2)c1.Cl.Cl (stereo not drawn)
S (slope): 5.6830
//
COMPOUND: CCCCOc1ccccc1NC(=O)OC(CN(CCC)CCC)CN1CCCCCC1 (stereo not drawn)
S (slope): 4.3102
//
COMPOUND: CCCCCOc1ccccc1NC(=O)OC(CN(CCC)CCC)CN1CCCC1 (stereo not drawn)
S (slope): 3.9834
//
COMPOUND: CCCCCCCOc1cccc(NC(=O)OC(CN(CCC)CCC)CN2CCCCCC2)c1.Cl.Cl (stereo not drawn)
S (slope): 6.2672
//
COMPOUND: CCCCCOc1ccccc1NC(=O)OC(CN(CCC)CCC)CN1CCCCCC1.O=C(O)C(=O)O (stereo not drawn)
S (slope): 4.6600
//
COMPOUND: CCCCCCOc1cccc(NC(=O)OC(CN(CCC)CCC)CN2CCCCCC2)c1.Cl.Cl (stereo not drawn)
S (slope): 5.7628

* * *

tested on: Mycobacterium tuberculosis CNCTC My 331/88 (identical with H37Rv and ATCC 2794; MTv H37Rv); test: in vitro antimycobacterial MIC, dilution micromethod in Šula's semisynthetic medium; type: cell-based; settings: Mycobacterium tuberculosis, 336 h; 14-day cultivation; read-out: MIC MTv H37Rv 14-d
MEASURE NAME: MIC

MOLECULE: CCCCCCOc1cccc(NC(=O)OC(CN(CCC)CCC)CN2CCCC2)c1 (stereo not shown)
TESTED ON: Mycobacterium tuberculosis CNCTC My 331/88 (identical with H37Rv and ATCC 2794; MTv H37Rv)
RESULT: 8 µM
//
MOLECULE: CCCCCCCOc1cccc(NC(=O)OC(CN(CCC)CCC)CN2CCCC2)c1.Cl.Cl (stereo not shown)
TESTED ON: Mycobacterium tuberculosis CNCTC My 331/88 (identical with H37Rv and ATCC 2794; MTv H37Rv)
RESULT: 4 µM
//
MOLECULE: CC1COc2c(N3CCN(C)CC3)c(F)cc3c(=O)c(C(=O)O)cn1c23 (stereo not shown) [OFLX, ofloxacin, reference compound]
TESTED ON: Mycobacterium tuberculosis CNCTC My 331/88 (identical with H37Rv and ATCC 2794; MTv H37Rv)
RESULT: 1 µM
//
MOLECULE: CCCCCCCOc1ccccc1NC(=O)OC(CN(CCC)CCC)CN1CCCC1.Cl.Cl (stereo not shown)
TESTED ON: Mycobacterium tuberculosis CNCTC My 331/88 (identical with H37Rv and ATCC 2794; MTv H37Rv)
RESULT: 8 µM

* * *

Quick reference for log k among some molecules
Assay: lipophilicity by isocratic RP-HPLC (log k, k, log kw, S)
Format: physicochemical
Settings: mobile phase pure MeOH
Description: Octadecyl-functionalized silica gel was currently used as a stationary phase (SPh) and a […] of two solvents at different volume ratios modified retention properties of the SPh. […] The MeOH modifier was preferred because of similarity of both observed and extrapolated lipophilicity parameters with the ones determined in the octan-1-ol/water partition system, considering also sensitivity to H-bond donor properties of investigated compounds [41]. […]

MOLECULE: CCCCOc1cccc(NC(=O)OC(CN(CCC)CCC)CN2CCCC2)c1 (centres unmarked)
log k: −0.2956
//
MOLECULE: CCCCCOc1ccccc1NC(=O)OC(CN(CCC)CCC)CN1CCCCCC1.O=C(O)C(=O)O (centres unmarked)
log k: 0.1449
//
MOLECULE: CCCCOc1ccccc1NC(=O)OC(CN(CCC)CCC)CN1CCCCCC1 (centres unmarked)
log k: 0.1205
//
MOLECULE: CCCCCCCOc1cccc(NC(=O)OC(CN(CCC)CCC)CN2CCCCCC2)c1.O=C(O)C(=O)O (centres unmarked)
log k: 0.3996
//
MOLECULE: CCCCCCOc1ccccc1NC(=O)OC(CN(CCC)CCC)CN1CCCC1 (centres unmarked)
log k: 0.1287

// data source = paper PMC6222509
